target: human carbonic anhydrase 9 (CAIX) (human, UniProt Q16790 38-459); assay: FACS competition on HT-29 cells against tracer 3BP-2776; pIC50 category A = pIC50 >8.0
Starred links: 1 amine or outer side, 2 acyl side, 3 side chain; linkers in the order of their positions; H or OH if unused. Positions of bridges follow the written chain, without caps; N, C: chain ends. Non-standard residues stand in square brackets, D forms with d. mXylylene = c1cc(C[*:1])cc(C[*:2])c1
Quantity: pIC50

1) Ac-SYCE[dP]DWLTWSC-NH2 (linker 3-12 via mXylylene; SMILES CC(=O)N[C@@H](CO)C(=O)N[C@@H](Cc1ccc(O)cc1)C(=O)N[C@H]1CSCc2cccc(c2)CSC[C@@H](C(N)=O)NC(=O)[C@H](CO)NC(=O)[C@H](Cc2c[nH]c3ccccc23)NC(=O)[C@H]([C@@H](C)O)NC(=O)[C@H](CC(C)C)NC(=O)[C@H](Cc2c[nH]c3ccccc23)NC(=O)[C@H](CC(=O)O)NC(=O)[C@H]2CCCN2C(=O)[C@H](CCC(=O)O)NC1=O, also called Ac-Ser-Tyr-[Cys(3MeBn)-Glu-pro-Asp-Trp-Leu-Thr-Trp-Ser-Cys]-NH2) [3BP-3566]    > 8 pic50

Data origin, for the record: patent US20250339569A1
